System: Trichophyton rubrum
Assay: Antifungal activity against Trichophyton rubrum Cmccftla after 24 hrs by spectrophotometric analysis
Format: functional
Please provide measured MIC80 for the entries that follow.
Hi! Could you send only the number? It should be in µg/mL, unit omitted.

Entry CCCCc1ccnc2c1C(=O)c1sc([N+](=O)[O-])cc1C2=O ; MIC80 = 4

Data point: Cc1ccnc2c1C(=O)c1sccc1C2=O ; MIC80 = 4

# compound O=C1c2cc([N+](=O)[O-])sc2C(=O)c2c(C(Br)Br)ccnc21 ; its MIC80 = 32

Please fill in: MIC80 reported for Cc1ccnc2c1[C@H](O)c1sc([N+](=O)[O-])cc1[C@@H]2O (relative stereo) = 2

Lab note: CCc1ccnc2c1C(=O)c1sc([N+](=O)[O-])cc1C2=O gave MIC80 of 0.5

// CC(C)(C)OC(=O)N1CCC(c2ccnc3c2C(=O)c2sc([N+](=O)[O-])cc2C3=O)CC1 : MIC80 value = 8

Reported MIC80 for CCCc1cnc2c(c1)C(=O)c1sc([N+](=O)[O-])cc1C2=O was 1

Recorded MIC80 (compound Cc1ccnc2c1C(=O)c1sc([N+](=O)[O-])cc1C2=O ): 0.5

Consider Cc1ccnc2c1C(=O)c1cn(C)cc1C2=O . Its measured MIC80 is 64

Summary for this compound, O=C1c2cc([N+](=O)[O-])sc2C(=O)c2c(-c3ccco3)ccnc21 : MIC80 is 16

In plain terms, CC(C)(C)OC(=O)/C=C/c1ccnc2c1C(=O)c1sc([N+](=O)[O-])cc1C2=O has a documented MIC80 of 8

What the record says about OC(Cn1cncn1)(Cn1cncn1)c1ccc(F)cc1F : MIC80 is 4

Value of MIC80 reported for the compound CCCCc1cnc2c(c1)C(=O)c1sc([N+](=O)[O-])cc1C2=O is 1

MIC80 in this record for CCCc1ccnc2c1C(=O)c1sc([N+](=O)[O-])cc1C2=O : 2

Kindly note the recorded MIC80 for Cc1cnc2c(c1)C(=O)c1sc([N+](=O)[O-])cc1C2=O , which is 1

---

System: Trichophyton rubrum
Experiment: Antifungal activity against Trichophyton rubrum Cmccftla after 24 hrs by spectrophotometric analysis
Format: functional
What log10 of MIC80 was measured for each of the following?
Note the log scale: values are log10 of MIC80 expressed in µg/mL.

Documented log10 of MIC80 of Cc1ccnc2cc3cc([N+](=O)[O-])sc3cc12 : 0.60

Value of measured log10 of MIC80 for the entry CC(C)(C)OC(=O)/C=C\c1ccnc2c1C(=O)c1sc([N+](=O)[O-])cc1C2=O : 0.60

Sample Cc1cc[n+]([O-])c2c1C(=O)c1sc([N+](=O)[O-])cc1C2=O ; log10 of MIC80 observed: 0.90

Record CCC(C)n1ncn(-c2ccc(N3CCN(c4ccc(OCC5COC(Cn6cncn6)(c6ccc(Cl)cc6Cl)O5)cc4)CC3)cc2)c1=O (configuration not stated) [ITRACONAZOLE] . Reported log10 of MIC80: 0.60

Record Cc1cnc2c(c1C)C(=O)c1sc([N+](=O)[O-])cc1C2=O , field log10 of MIC80: -0.30

Quick note, log10 of MIC80 for Cc1ccnc2c1C(=O)c1scc([N+](=O)[O-])c1C2=O landed at 0.60

Entry O=C1c2cc([N+](=O)[O-])sc2C(=O)c2c(-c3ccccc3[N+](=O)[O-])ccnc21 — recorded log10 of MIC80 = 1.20

For CN(C)c1ccc(-c2ccnc3c2C(=O)c2sc([N+](=O)[O-])cc2C3=O)cc1 the compound record lists log10 of MIC80 as 0.60

Recorded result, COc1ccccc1-c1ccnc2c1C(=O)c1sc([N+](=O)[O-])cc1C2=O , log10 of MIC80: 1.20

Measured log10 of MIC80 of O=Cc1ccnc2c1C(=O)c1sc([N+](=O)[O-])cc1C2=O : 0.00

Summary for this compound, CC(C)c1cnc2c(c1)C(=O)c1sc([N+](=O)[O-])cc1C2=O : log10 of MIC80 is 0.00

Provenance of the data: ChEMBL document CHEMBL4138161
